Reported SF (E. coli) at 25 μM values for the following compounds.
- Test system: E. coli
- assay-comment: Sensitization of E. coli to erythromycin (sensitization fold from IC90, OD600, 20 h)
- Format: cell-based, Escherichia coli
- particulars: erythromycin; compound at 25 μM; NA=no activity
- Protocol: E. coli bacteria were cultured in Miller's broth at 37° C. overnight prior to treatment. B. subtilis bacteria were cultured in nutrient broth at 37° C. overnight prior to treatment. […] Bacterial density was measured based on OD600.
Please give a number only; it is taken to be in fold.

Below, each entry is followed by its recorded SF (E. coli) at 25 μM result.
{"columns": ["compound", "measured-target", "SF (E. coli) at 25 μM [fold]"],
 "data": [
  ["Cc1cc(COc2ccc(C(=N)N)cc2)nc(COc2ccc(C(=N)N)cc2)c1", "E. coli", 32],
  ["Cc1ccc(COc2ccc(C(=N)N)cc2)cc1COc1ccc(C(=N)N)cc1 [drawing 746]", "E. coli", 32],
  ["Cc1cc(COc2cccc(C(=N)N)c2)cc(COc2cccc(C(=N)N)c2)c1 [drawing 743]", "E. coli", 8]
]}

Problem: Data request, read-out SF (E. coli) at 25 μM, for Cc1cc(CCc2ccc(C(=N)N)cc2)cc(CCc2ccc(C(=N)N)cc2)c1 [drawing 734]
Solution: 32

---

- Tested on: 3T3 cells
- assay-comment: Cytotoxicity in 3T3 cells (CCK-8, 24 h)
- Assay type: cell-based
- particulars: NT=not toxic
observation-type: 3T3 cytotoxicity at 100 μM ("100 μM result in x%")

Below, each entry is followed by its recorded 3T3 cytotoxicity at 100 μM ("100 μM result in x%") result.
{"columns": ["molecule", "result"],
 "data": [
  ["N=C(N)c1ccc(OCc2cccc(COc3ccc(C(=N)N)cc3F)c2F)c(F)c1 [drawing 854]", "100 μM result in 30%"],
  ["N=C(N)c1ccc(OCc2ccc(COc3ccc(C(=N)N)cc3)cc2)cc1 [drawing 869]", "100 result in 10%"],
  ["Cc1cc(OCc2ccc(C(=N)N)cc2)cc(OCc2ccc(C(=N)N)cc2)c1 [drawing 877]", "100 UM result in 10%"]
]}

Turning now to a further molecule:
Problem: Please provide the recorded 3T3 cytotoxicity at 100 μM ("100 μM result in x%") for Cc1cc(COc2ccc(C(=N)N)cc2)cc(COc2ccc(C(=N)N)cc2)c1 [drawing 863] , tested on 3T3 cells.
Solution: 100 μM result in 20%

---

Record type: MIC measurement. Applies to: M. smegmatis
Please give a number only; it is taken to be in µM.

Below, each entry is followed by its recorded MIC result.
{"columns": ["compound", "observation-type", "quantitative-result"],
 "data": [
  ["N=C(N)c1ccc(OCc2ccc(-c3ccc(C(=N)N)cc3)cc2)cc1 [drawing 804]", "MIC", 6],
  ["CC(C)(C)c1cc(COc2ccc(C(=N)N)cc2)cc(COc2ccc(C(=N)N)cc2)c1 [drawing 818]", "MIC", 6],
  ["N=C(N)c1ccc(OCCCCCCOc2ccc(C(=N)N)cc2)cc1 [drawing 825]", "MIC", 6],
  ["COc1cc(C(=N)N)ccc1OCc1cc(C)cc(COc2ccc(C(=N)N)cc2OC)c1 [drawing 816]", "MIC", 25]
]}

Turning now to a further compound:
Problem: Data request, read-out MIC, for N=C(N)c1ccc(OCc2cccc(COc3ccc(C(=N)N)cc3)n2)cc1 [drawing 823]
Solution: 12
